# System: OVCAR-5 ovarian
# METHOD SUMMARY: NCI-60 one-dose screen, 48 h
# CONDITION: 10 µM unless noted
The panel holds about 83,000 compounds, 20% with a hit somewhere; the sample as a whole holds those more often. Calls of active or inactive are those of the source. The calls were made as follows: active = growth percent below 10; inactive = the rest.
Your response should consist of one outcome taken from 1 for active, -1 for inactive

Example cases with answers are listed next.
CCOc1ccc(NC(=O)Nc2cc(C(C)C)ccc2C)cc1    -1
C=C1C(=O)O[C@H]2[C@H]1CC/C(COC(=O)c1cccc3ccccc13)=C\CC[C@@]1(C)O[C@@H]21    1
CCCCCCCCCCCCCCCCNc1ccccc1    -1
N#Cc1c2c(c(N)[nH]c1=O)C(=O)NC2(O)c1ccccc1 (stereo not given)    -1
Cc1ccc(=O)n(-c2ccc(Br)cc2F)c1    -1

Exercise: Which outcome was entered for the molecule COc1ccc(SC2c3ccc(O)cc3Oc3nc(N)c(C#N)c(N)c32)cc1 (stereo not given) in this test?
Solution: -1

Exercise: "COc1cc2c(/C=C3/C(=O)Nc4ccc(O)cc43)c(Cl)n(Cc3cc(OC)c(OC)c(OC)c3)c2cc1C" ?
Solution: -1

Exercise: Record: "Cc1ccc(NC(=O)CN2CCOCC2)cc1Cl"
Solution: -1

Exercise: Next entry: "CN(C)CCCOc1c(Br)cc(/C=C/C(=O)N(C)CCc2cc(Br)c(OCCCN(C)C)c(Br)c2)cc1Br"
Solution: -1

Exercise: How about "COc1ccc(/C=C2/C(=O)Nc3cc(Cl)c(-c4csc(N)n4)cc32)cc1" ?
Solution: -1

----------
# System: M14 melanoma
# METHOD SUMMARY: NCI-60 one-dose screen, 48 h
# CONDITION: 10 µM unless noted
The panel holds about 83,000 compounds, 20% with a hit somewhere; the sample as a whole holds those more often. Calls of active or inactive are those of the source. Rule for the calls: active = growth percent below 10; inactive = the rest.
Valid outcomes are listed here; reply with one: true for active, false for inactive

Exercise: Test call, this compound: "C=CCn1c(SCC(=O)Nc2ccc(/C(C)=N\O)cc2)nnc1-c1cc(-c2ccc(OC)cc2)nc2ccccc12"
Solution: false

----------
# Test system: 786-0 renal
# METHOD SUMMARY: NCI-60 one-dose screen, 48 h
# CONDITION: 10 µM unless noted
# Description: Cells are grown in 96 well plates and exposed to the test compound for 48 hours. Compounds are tested at a single concentration, which is 10^-5 M for most compounds. The reported endpoint is percent growth (GI% or GIPRCNT), where numbers from 0 - 100% represent growth inhibition, and numbers from -100% - 0 represent cell death. For example, a value of 40 represents 60% growth inhibition. A value of 0 means no net growth occurred over the course of the experiment. […]
About 83,000 compounds went through this panel and 20% of them were active in at least one assay; those are over-represented in the sample as a whole. Activity calls are given as the source filed them. How the source made its calls: active means growth percent below 10; inactive means the rest.
Please answer using one outcome listed in active, inactive

The examples below pair each entry with its known result.
O=c1nc(N2CCOCC2)oc2c(-c3cccc4ccccc34)cccc12    inactive
CN(C)c1ccc(/C=N/N=C(N)N)cc1    inactive
Nc1nccc2c1ccn2-c1ccc(NC(=O)Nc2cccc(C(F)(F)F)c2)cc1    inactive

Exercise: Which outcome did this test record for the compound COc1cccc(/C=N/C(=S)NC2(C)C3CCC(C3)C2(C)C)c1O (stereo not given) ?
Solution: inactive

Exercise: Entry to check: "C[C@H]1C=C(C[C@@H](O)CCCCCCCCCC[C@@H](O)[C@H]2CCC(=O)O2)C(=O)O1"
Solution: inactive

Exercise: Also, "COc1cccc(-c2nc3sccn3c2-c2ccnc(NCCNC(=O)Nc3cccc(C(F)(F)F)c3)n2)c1" please.
Solution: inactive

Exercise: Queued: "COc1ccc(/C(=C/c2cc(OC)c(OC)c(OC)c2)[N+](=O)[O-])cc1"
Solution: active

Exercise: Next up: "Cc1cccc(Cc2cnc(NC(=O)CCc3ccc(C)o3)s2)c1"
Solution: inactive

Exercise: Try the compound "O=C(Nc1cccc([N+](=O)[O-])c1)Nc1cccc([N+](=O)[O-])c1"
Solution: inactive

Exercise: Next up: "O=S(=O)(CCN1CCOCC1)Nc1cc(-c2ccc3ncnc(Nc4ccc(F)c(Cl)c4)c3c2)cnc1Cl"
Solution: active

Exercise: Also "O=C(Nc1ccc(-n2cc(-c3ccncc3)c(-c3ccc(O)c(Cl)c3)n2)cc1)c1cc(C(F)(F)F)cc(C(F)(F)F)c1" , if possible.
Solution: inactive
